Source of measurements: PubChem BioAssay AID180

Record form. Attribute: T/C. Fill in for each entry.
# Tested on: BDF1 mice, Adenocarcinoma 755 s.c., tumor weight T/C
# MEASUREMENT DESCRIPTION: NCI In Vivo Anticancer Drug Screen. Data for tumor model Adenocarcinoma 755 (subcutaneous) in B6D2F1 (BDF1) mice
# TEST SETTINGS: endpoint: mean tumor weight; dose: 125.0 mg/kg/injection; schedule: Q01DX011 (ip); vehicle: methylcellulose (MC); higher = larger tumour

Sample `Cn1ccc(N)nc1=O` ; T/C observed: 84 % of control

Sample `Cc1cnc(SCc2ccccc2)[nH]c1=O` ; T/C observed: 92 % of control

Sample `c1ncc2[nH]cnc2n1` ; T/C observed: 57 % of control

Sample NC(Cc1cccs1)C(=O)O (centres undefined) ; T/C observed: 90 % of control

Sample CC(=O)OCC1CCCC(n2cnc3c(Cl)ncnc32)O1 (centres undefined) ; T/C observed: 52 % of control

Sample `Nc1nc(Cl)cc(-c2ccccc2)n1` ; T/C observed: 65 % of control

Sample `Nc1nc(=S)cc(Nc2cccc(Cl)c2)[nH]1` ; T/C observed: 51 % of control

Sample CC1CN(Cc2ccco2)C(=S)N(c2ccccc2)C1=O (centres undefined) ; T/C observed: 84 % of control

Sample `CNc1nc(SCc2ccccc2)ncc1C` ; T/C observed: 82 % of control

Sample CC(C)CN1CC(C)C(=O)N(c2ccccc2)C1=S (centres undefined) ; T/C observed: 57 % of control

Sample `Cc1ncc(CO)c(C)c1O` ; T/C observed: 48 % of control

Sample `Cc1cc(Nc2ccccc2Br)nc(N)n1` ; T/C observed: 78 % of control

Sample Cc1cc2nc3c(=O)[nH]c(=O)nc-3n(CC(O)C(O)C(O)C(O)CO)c2cc1C (centres undefined) ; T/C observed: 27 % of control

Sample CN(C)c1nc(N)c2ncn(C3OC(CO)C(O)C3O)c2n1 (centres undefined) ; T/C observed: 74 % of control

---

# Test system: BDF1 mice, Adenocarcinoma 755 s.c., tumor weight T/C
# MEASUREMENT DESCRIPTION: NCI In Vivo Anticancer Drug Screen. Data for tumor model Adenocarcinoma 755 (subcutaneous) in B6D2F1 (BDF1) mice
# TEST SETTINGS: endpoint: mean tumor weight; dose: 120.0 mg/kg/injection; schedule: Q01DX011 (ip); vehicle: carboxymethylcellulose (CMC); higher = larger tumour
Record form. Attribute: T/C. Fill in for each entry.

Sample Cc1ccc(S(=O)(=O)OCC2OC(n3cnc4c(=O)[nH]c(N)nc43)C(O)C2O)cc1 (centres undefined) ; T/C observed: 98 % of control

Sample `Cn1c(=O)c2[nH]c(N/N=C/c3ccccc3C(=O)O)nc2n(C)c1=O` ; T/C observed: 88 % of control

Sample `COc1cc(/C=N/Nc2nc3c([nH]2)c(=O)n(C)c(=O)n3C)ccc1O` ; T/C observed: 119 % of control

Sample `Nc1[nH]c(=S)ncc1NC=O` ; T/C observed: 91 % of control

Sample `NS(=O)(=O)c1nc2nc[nH]c(=O)c2[nH]1` ; T/C observed: 104 % of control

Sample O=c1[nH]c(=O)c2nc(Br)n(C3OC(CO)C(O)C3O)c2[nH]1 (centres undefined) ; T/C observed: 68 % of control

Sample `CCOC=Nc1c(N)ncnc1F` ; T/C observed: 57 % of control

Sample `Cn1c(=O)c2c(nc(N/N=C/c3ccccc3Br)n2C)n(C)c1=O` ; T/C observed: 101 % of control

Sample `Cn1c(=O)c2c(nc(N/N=C/c3cccc(Br)c3)n2C)n(C)c1=O` ; T/C observed: 88 % of control

Sample `NS(=O)(=O)c1nc(S(=O)(=O)O)c2[nH]cnc2n1` ; T/C observed: 86 % of control

Sample `Cn1c(=O)c2[nH]c(N/N=C/c3ccc(F)cc3)nc2n(C)c1=O` ; T/C observed: 114 % of control

Sample O=c1[nH]cnc2c1ncn2C1CCCO1 (centres undefined) ; T/C observed: 106 % of control

Sample `CSc1nc(Cl)c2cc[nH]c2n1` ; T/C observed: 72 % of control

Sample CC(=O)OCC1OC(n2cnc3c(=O)[nH]cnc32)C(OC(C)=O)C1OC(C)=O (centres undefined) ; T/C observed: 80 % of control

Sample `Cn1c(=O)c2ncn(CC(=O)O)c2n(C)c1=O` ; T/C observed: 99 % of control

Sample Cn1c(N)nc2c(ncn2C2CC(O)C(CO)O2)c1=O (centres undefined) ; T/C observed: 89 % of control

Sample `CSc1nc(=O)cc2[nH]c(O)cn12` ; T/C observed: 50 % of control

Sample `CSc1nc(N)nc2c1n(C)c[n+]2C` ; T/C observed: 66 % of control

Sample CN(C)c1nc(Cl)nc2c1nc(Cl)n2C1CCCCO1 (centres undefined) ; T/C observed: 68 % of control

Sample CC(=O)OCC1OC(n2cnc3c(=O)[nH]cnc32)CC1OC(C)=O (centres undefined) ; T/C observed: 86 % of control

Sample Nc1ncnc2c1nc(Br)n2C1CC(O)C(CO)O1 (centres undefined) ; T/C observed: 75 % of control

Sample `Nc1ncnc(F)c1N` ; T/C observed: 89 % of control

Sample `Cc1ccc(/C=N/Nc2nc3c([nH]2)c(=O)n(C)c(=O)n3C)cc1` ; T/C observed: 112 % of control

Sample `C[C@@H]1CN(C(=O)CCOS(C)(=O)=O)[C@@H](C)CN1C(=O)CCOS(C)(=O)=O` ; T/C observed: 4 % of control

---

# Test system: BDF1 mice, Adenocarcinoma 755 s.c., tumor weight T/C
# MEASUREMENT DESCRIPTION: NCI In Vivo Anticancer Drug Screen. Data for tumor model Adenocarcinoma 755 (subcutaneous) in B6D2F1 (BDF1) mice
# TEST SETTINGS: endpoint: mean tumor weight; dose: 1.0 mg/kg/injection; schedule: Q01DX011 (ip); vehicle: carboxymethylcellulose (CMC); higher = larger tumour
READOUT KIND: T/C

Sample `S=P(N1CCCCCC1)(N1CC1)N1CC1` ; T/C observed: 92 % of control

Sample `NC(=O)c1ccc(NC(=O)CCC(=O)Nc2ccc(C(N)=O)cn2)nc1` ; T/C observed: 80 % of control

Sample `O=P(N1CCCC1)(N1CC1)N1CC1` ; T/C observed: 42 % of control

Sample `CCCCSc1ncnc2nc[nH]c12` ; T/C observed: 121 % of control

Sample `O=C(O)CCCc1ccc(N(CCCl)CCCl)cc1` ; T/C observed: 43 % of control

Sample `COCCCNS(=O)(=O)c1ncnc2nc[nH]c12` ; T/C observed: 79 % of control

Sample `CN(C)[C@@H]1C(=O)C(C(=O)NCc2nc3[nH]cnc(=S)c3[nH]2)=C(O)[C@@]2(O)C(=O)C3=C(O)c4c(O)cccc4[C@@](C)(O)[C@H]3C[C@@H]12` ; T/C observed: 64 % of control

---

# System: BDF1 mice, Adenocarcinoma 755 s.c., tumor weight T/C
# MEASUREMENT DESCRIPTION: NCI In Vivo Anticancer Drug Screen. Data for tumor model Adenocarcinoma 755 (subcutaneous) in B6D2F1 (BDF1) mice
# TEST SETTINGS: endpoint: mean tumor weight; dose: 16.0 mg/kg/injection; schedule: Q01DX011 (ip); vehicle: carboxymethylcellulose (CMC); higher = larger tumour
READOUT KIND: T/C

Sample `CCCCNc1ncnc2c1cnn2C` ; T/C observed: 52 % of control

Sample `Nc1nc(SCc2ccccc2)c2[nH]cnc2n1` ; T/C observed: 3 % of control

Sample `NC(=O)c1n[nH]nc1N=Nc1c(O)ccc2ccccc12` ; T/C observed: 85 % of control

Sample `CCCCn1cnc2c(=S)nc[nH]c21` ; T/C observed: 8 % of control

---

Record form. Attribute: T/C. Fill in for each entry.
# Tested on: BDF1 mice, Adenocarcinoma 755 s.c., tumor weight T/C
# MEASUREMENT DESCRIPTION: NCI In Vivo Anticancer Drug Screen. Data for tumor model Adenocarcinoma 755 (subcutaneous) in B6D2F1 (BDF1) mice
# TEST SETTINGS: endpoint: mean tumor weight; dose: 6.2 mg/kg/injection; schedule: Q01DX011 (ip); vehicle: methylcellulose (MC); higher = larger tumour

Sample `CNS(=O)(=O)c1ncnc2nc[nH]c12` ; T/C observed: 36 % of control

Sample CCNc1ncnc2c1cnn2C1CCCO1 (centres undefined) ; T/C observed: 39 % of control

Sample CC(=O)Nc1nc(SCc2ccccc2)c2ncn(C3CCCO3)c2n1 (centres undefined) ; T/C observed: 54 % of control

Sample `O=S(=O)(F)c1nc(Cl)c2[nH]cnc2n1` ; T/C observed: 117 % of control
